# measurement target: intracellular domain of human Tie2 (GST fusion protein) (Homo sapiens)
# Construct: intracellular domain of human Tie2 (amino acids 776-1124)
# experiment: Tie2 kinase assay (Tie2-TR-FRET)
# particulars: ATP concentration 1 mM, in some cases means of several independent determinations
Structures can show the parent of a compound that is named as a salt.
# pIC50 per record follows
Friendly reminder that pIC50 comes from taking -log10 of the concentration in mol/L.

[
  {
    "compound": "Cc1ccc(-n2ccn3nc(-c4cccnc4)cc23)cc1NC(=O)c1cccc(S(F)(F)(F)(F)F)c1",
    "property label": "pIC50",
    "readout number": 7.09
  }
]

What does the record list as pIC50 for Cc1cc(C)c(-n2ccn3nc(-c4cccnc4)cc23)cc1NC(=O)c1cc(C#N)cc(S(F)(F)(F)(F)F)c1 [Example 147, dihydrochloride] ? 9.70

What does the record list as pIC50 for Cc1ccc(NC(=O)c2cc(N3CCN(C)CC3)cc(C(C)(C)C)c2)cc1-n1ccn2nc(-c3cccnc3)cc12 ? 9.52

What does the record list as pIC50 for Cc1ccc(NC(=O)c2cc(C(C)(C)O)cc(S(F)(F)(F)(F)F)c2)cc1-n1ccn2nc(-c3cn[nH]c3)cc12 ? 9.22

====

# measurement target: intracellular domain of human Tie2 (GST fusion protein) (Homo sapiens, UniProt Q02763)
# Construct: intracellular domain of human Tie2 (amino acids 776-1124)
# Sequence (Q02763 776-1124): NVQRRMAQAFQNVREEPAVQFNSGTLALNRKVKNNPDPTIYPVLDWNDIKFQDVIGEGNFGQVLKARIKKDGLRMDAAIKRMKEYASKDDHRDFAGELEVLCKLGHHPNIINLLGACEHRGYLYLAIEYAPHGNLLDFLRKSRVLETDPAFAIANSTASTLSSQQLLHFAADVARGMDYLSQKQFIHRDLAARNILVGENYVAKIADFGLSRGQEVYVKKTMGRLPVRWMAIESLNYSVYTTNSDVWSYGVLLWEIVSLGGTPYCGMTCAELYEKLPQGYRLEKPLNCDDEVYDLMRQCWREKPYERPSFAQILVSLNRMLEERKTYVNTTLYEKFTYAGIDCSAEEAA
# experiment: Tie2 kinase assay (Tie2-TR-FRET)
# particulars: ATP concentration 1 mM, in some cases means of several independent determinations
# log10(IC50) per record follows
Transform log10 | Measure IC50 | Unit nM

Example entries begin here.
[
  {
    "molecule": "Cc1ccc(NC(=O)c2cc(N3CCN(C)CC3)cc(C(C)(C)C)c2)cc1-n1ccn2nc(-c3cn[nH]c3)cc12 [Example 8]",
    "measurement target": "intracellular domain of human Tie2 (GST fusion protein) (Homo sapiens, UniProt Q02763)",
    "log10(IC50)": 0.28
  },
  {
    "molecule": "Cc1ccc(NC(=O)c2cccc(S(F)(F)(F)(F)F)c2)c(C)c1-n1ccn2nc(-c3cccnc3)cc12 [Example 119]",
    "measurement target": "intracellular domain of human Tie2 (GST fusion protein) (Homo sapiens, UniProt Q02763)",
    "log10(IC50)": 2.04
  },
  {
    "molecule": "Cc1c(F)cc(NC(=O)c2cc(C#N)cc(S(F)(F)(F)(F)F)c2)cc1-n1ccn2nc(-c3cccnc3)cc12 [Example 105]",
    "measurement target": "intracellular domain of human Tie2 (GST fusion protein) (Homo sapiens, UniProt Q02763)",
    "log10(IC50)": 1.59
  },
  {
    "molecule": "Cc1cc(C)c(-n2ccn3nc(-c4cccnn4)cc23)cc1NC(=O)c1cc(C#N)cc(S(F)(F)(F)(F)F)c1 [Example 171]",
    "measurement target": "intracellular domain of human Tie2 (GST fusion protein) (Homo sapiens, UniProt Q02763)",
    "log10(IC50)": -0.52
  },
  {
    "molecule": "Cc1ccc(NC(=O)c2cc(C(C)(C)O)cc(S(F)(F)(F)(F)F)c2)cc1-n1ccn2nc(-c3cncs3)cc12 [Example 178]",
    "measurement target": "intracellular domain of human Tie2 (GST fusion protein) (Homo sapiens, UniProt Q02763)",
    "log10(IC50)": -0.10
  }
]

What does the record list as log10(IC50) for Cc1cc(C)c(-n2ccn3nc(-c4cccnc4)cc23)cc1NC(=O)c1cc(CC(=O)O)cc(S(F)(F)(F)(F)F)c1 [Example 151] ? 0.79

What does the record list as log10(IC50) for Cc1ccc(NC(=O)c2cc(CN3CCCC3)cc(C(C)(C)C)c2)cc1-n1ccn2nc(-c3cn[nH]c3)cc12 [Example 9] ? 0.83
